# pIC50 annotations
- study_system: purified human, His-tagged PRC2 complex (Homo sapiens (Human), UniProt O75530)
- Sequence (O75530 whole entry): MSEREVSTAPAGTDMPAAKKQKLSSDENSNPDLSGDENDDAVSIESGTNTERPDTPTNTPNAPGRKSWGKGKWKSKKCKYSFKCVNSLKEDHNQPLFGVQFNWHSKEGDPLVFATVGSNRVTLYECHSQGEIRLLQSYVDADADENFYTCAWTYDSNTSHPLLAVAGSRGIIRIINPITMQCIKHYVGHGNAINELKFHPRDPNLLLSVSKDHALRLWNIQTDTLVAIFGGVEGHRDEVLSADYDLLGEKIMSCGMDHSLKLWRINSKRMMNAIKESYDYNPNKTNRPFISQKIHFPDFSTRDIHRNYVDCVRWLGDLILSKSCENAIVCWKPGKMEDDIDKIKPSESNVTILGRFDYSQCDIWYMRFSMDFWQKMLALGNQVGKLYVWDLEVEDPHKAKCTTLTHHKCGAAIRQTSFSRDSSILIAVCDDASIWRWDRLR
- Sequence (Q15910 whole entry partner): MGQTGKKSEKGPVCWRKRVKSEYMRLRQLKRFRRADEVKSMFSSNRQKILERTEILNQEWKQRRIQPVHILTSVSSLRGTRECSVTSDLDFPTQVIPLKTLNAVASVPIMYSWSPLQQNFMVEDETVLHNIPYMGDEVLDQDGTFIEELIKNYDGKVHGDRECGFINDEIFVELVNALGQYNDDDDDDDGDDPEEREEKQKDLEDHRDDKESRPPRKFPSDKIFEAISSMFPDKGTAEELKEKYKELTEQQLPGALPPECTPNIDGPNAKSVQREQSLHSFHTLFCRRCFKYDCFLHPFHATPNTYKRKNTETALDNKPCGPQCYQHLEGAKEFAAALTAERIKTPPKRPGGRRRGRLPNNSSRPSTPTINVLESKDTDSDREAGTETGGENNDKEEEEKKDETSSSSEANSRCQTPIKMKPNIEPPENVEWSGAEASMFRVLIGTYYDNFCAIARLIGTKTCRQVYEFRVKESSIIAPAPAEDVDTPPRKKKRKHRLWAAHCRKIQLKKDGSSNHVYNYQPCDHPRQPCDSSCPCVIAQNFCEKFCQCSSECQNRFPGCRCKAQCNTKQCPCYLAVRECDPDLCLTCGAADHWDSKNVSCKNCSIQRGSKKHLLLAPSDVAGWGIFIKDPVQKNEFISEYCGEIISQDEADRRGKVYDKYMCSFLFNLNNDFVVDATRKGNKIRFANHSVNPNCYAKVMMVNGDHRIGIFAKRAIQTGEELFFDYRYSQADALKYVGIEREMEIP
- Sequence (Q15022 whole entry partner): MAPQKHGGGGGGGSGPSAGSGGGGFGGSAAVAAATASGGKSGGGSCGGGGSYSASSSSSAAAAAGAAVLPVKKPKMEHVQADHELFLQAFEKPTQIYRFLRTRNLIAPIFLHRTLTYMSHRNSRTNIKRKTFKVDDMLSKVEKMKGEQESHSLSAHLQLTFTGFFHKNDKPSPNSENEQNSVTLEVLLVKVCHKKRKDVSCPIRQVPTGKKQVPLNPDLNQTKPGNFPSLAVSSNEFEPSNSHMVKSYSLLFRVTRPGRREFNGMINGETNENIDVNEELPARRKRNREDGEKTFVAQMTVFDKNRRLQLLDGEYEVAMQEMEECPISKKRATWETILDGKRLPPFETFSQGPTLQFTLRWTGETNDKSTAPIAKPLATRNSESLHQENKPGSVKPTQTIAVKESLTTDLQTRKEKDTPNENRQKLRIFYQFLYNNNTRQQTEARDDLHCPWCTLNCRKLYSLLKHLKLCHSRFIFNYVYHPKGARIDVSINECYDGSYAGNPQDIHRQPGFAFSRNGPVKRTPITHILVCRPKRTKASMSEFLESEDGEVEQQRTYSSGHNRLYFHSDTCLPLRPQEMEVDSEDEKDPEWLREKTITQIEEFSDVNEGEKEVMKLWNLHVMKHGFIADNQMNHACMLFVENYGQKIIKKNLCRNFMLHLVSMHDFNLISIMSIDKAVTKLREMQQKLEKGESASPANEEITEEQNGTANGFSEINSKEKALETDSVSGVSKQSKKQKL
- Sequence (Q6ZN18 whole entry partner): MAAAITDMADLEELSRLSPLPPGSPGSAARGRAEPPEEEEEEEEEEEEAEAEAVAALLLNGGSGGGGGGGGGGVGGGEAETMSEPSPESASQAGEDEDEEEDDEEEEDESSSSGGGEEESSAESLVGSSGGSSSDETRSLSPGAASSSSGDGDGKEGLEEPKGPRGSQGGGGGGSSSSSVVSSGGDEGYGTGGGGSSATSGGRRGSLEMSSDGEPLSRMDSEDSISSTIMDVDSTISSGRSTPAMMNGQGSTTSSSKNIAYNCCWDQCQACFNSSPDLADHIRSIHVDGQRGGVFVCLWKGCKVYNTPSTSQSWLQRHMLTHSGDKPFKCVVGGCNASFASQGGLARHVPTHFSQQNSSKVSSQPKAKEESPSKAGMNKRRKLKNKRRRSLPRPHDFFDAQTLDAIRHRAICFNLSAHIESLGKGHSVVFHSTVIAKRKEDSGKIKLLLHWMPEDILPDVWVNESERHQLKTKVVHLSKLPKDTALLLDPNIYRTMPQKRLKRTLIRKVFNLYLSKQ
- Sequence (Q09028 whole entry partner): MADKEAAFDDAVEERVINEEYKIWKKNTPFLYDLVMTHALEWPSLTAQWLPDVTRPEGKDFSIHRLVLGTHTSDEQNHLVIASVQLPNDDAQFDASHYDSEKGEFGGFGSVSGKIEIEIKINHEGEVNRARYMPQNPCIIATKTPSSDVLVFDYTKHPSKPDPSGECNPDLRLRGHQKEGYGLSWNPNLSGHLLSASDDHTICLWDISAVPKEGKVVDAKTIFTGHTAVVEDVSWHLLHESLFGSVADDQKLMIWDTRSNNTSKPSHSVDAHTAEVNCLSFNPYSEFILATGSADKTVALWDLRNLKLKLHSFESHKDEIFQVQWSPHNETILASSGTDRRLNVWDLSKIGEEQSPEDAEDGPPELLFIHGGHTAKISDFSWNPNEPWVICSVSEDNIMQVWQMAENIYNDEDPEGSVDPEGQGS
- protocol: Hot Spot HMT assay, inhibition of PRC2 enzymatic activity
- setup_conditions: 10 nM PRC2 complex, 1 μM 3H-SAM, core histone H3, 10-point dose-response
pIC50: −log10 of the molar value.

A selection of reference data follows.
INSERT INTO measurements (compound, endpoint_name, result) VALUES
  ('CNCc1cc(-c2cnc(NCc3c(F)ccc4c3CCO4)n3cc(C#N)nc23)n(C)n1 [Example 211]', 'pIC50', '> 7.00'),
  ('Cc1c(-c2cnc(NCc3c(F)ccc4c3CCO4)n3cc(C(=O)O)nc23)cnn1C(C)C [Example 8]', 'pIC50', '> 7.00'),
  ('CN1CCN(C(=O)c2cc(-c3cnc(NCc4c(F)ccc5c4CCO5)n4cc(C#N)nc34)n(C)n2)CC1 [Example 229]', 'pIC50', '> 7.00');

Now for the compound whose pIC50 we want.
Query: Sample Cc1ccc(-c2cnc(NCc3c(F)ccc4c3CCO4)n3cc(C#N)nc23)cc1 [Example 175] — what was its pIC50?
Reply: 6.30 to 7.00

* * *

# pIC50 annotations
- study_system: purified human, His-tagged PRC2 complex (Homo sapiens (Human), UniProt O75530)
- protocol: Hot Spot HMT assay, inhibition of PRC2 enzymatic activity
- setup_conditions: 10 nM PRC2 complex, 1 μM 3H-SAM, core histone H3, 10-point dose-response
pIC50: −log10 of the molar value.

INSERT INTO results (molecule, endpoint_name, result) VALUES
  ('N#Cc1cn2c(NCc3c(F)ccc4c3CCO4)ncc(-c3cncc(F)c3)c2n1 [Example 97]', 'pIC50', '> 7.00'),
  ('CCn1cc(-c2cnc(NCc3c(F)ccc4c3CCO4)n3cc(C#N)nc23)cn1 [Example 119]', 'pIC50', '6.30 to 7.00'),
  ('CNS(=O)(=O)c1ccc(-c2cnc(NCc3c(F)ccc4c3CCO4)n3cc(C#N)nc23)cc1 [Example 59]', 'pIC50', '> 7.00'),
  ('CS(=O)(=O)c1ccc(-c2cnc(NCc3c(F)ccc4c3CCO4)n3cc(C#N)nc23)cc1 [Example 73]', 'pIC50', '> 7.00'),
  ('N#Cc1cn2c(NCc3c(F)ccc4c3CCO4)ncc(-c3ccc(C4CC4)nc3)c2n1 [Example 116]', 'pIC50', '> 7.00');

Now for the molecule whose pIC50 we want.
Query: Sample Cc1nc(N2CCN(C)CC2)ccc1-c1cnc(NCc2c(F)ccc3c2CCO3)n2cc(C(N)=O)nc12 [Example 138] — what was its pIC50?
Reply: > 7.00

* * *

- study_system: purified human, His-tagged PRC2 complex (Homo sapiens (Human))
- protocol: Hot Spot HMT assay, inhibition of PRC2 enzymatic activity
- setup_conditions: 10 nM PRC2 complex, 1 μM 3H-SAM, core histone H3, 10-point dose-response
# IC50 annotations

A selection of reference data follows.
INSERT INTO assay_data (molecule, study_system, endpoint_name, result) VALUES
  ('Cc1ncncc1-c1cnc(NCc2c(F)ccc3c2CCO3)n2cc(C#N)nc12', 'purified human, His-tagged PRC2 complex (Homo sapiens (Human))', 'IC50', '< 100 nM'),
  ('CN(C)C(=O)c1c(F)cc(-c2cnc(NCc3c(F)ccc4c3CCO4)n3cc(C#N)nc23)cc1F', 'purified human, His-tagged PRC2 complex (Homo sapiens (Human))', 'IC50', '< 100 nM'),
  ('CN(C)C(=O)c1ccc(-c2cnc(NCc3c(F)ccc4c3CCO4)n3cc(C#N)nc23)c(Cl)c1F', 'purified human, His-tagged PRC2 complex (Homo sapiens (Human))', 'IC50', '< 100 nM');

Now for the molecule whose IC50 we want.
Query: Sample N#Cc1cn2c(NCc3c(F)ccc4c3CCO4)ncc(-c3cnn(CC4CCOC4)c3)c2n1 (stereo not shown) — what was its IC50?
Reply: 100 to 500 nM
